Where do these numbers come from? They come from patent US20220259593A1.

Let's look at some molecules and their measured Mean relative activity.
# Tested on: K562 CRISPRi cells
# EXPERIMENT_SUMMARY: Constant region variant library pooled growth screen, K562
# Format: cell-based, human
# RUN_PARAMETERS: sgRNA constant region variant; activity relative to unmodified constant region cr995; mean CRISPRi activity
Could you keep your reply to the number by itself?

The examples below pair each entry with its known result.
>  <MOLECULE>
cr795 (nucleic acid, listed as DNA, chemistry not fully specified) guide: GTTTAAGAGCTAAGCTGGAAACAGCATAGCAAGTTTAAATAATGCTAGTCAGTTATCAACTTGAAAAAGTGTCTCCGAGTCGGAGAT

>  <MEASUREMENT>
0.009911

$$$$
>  <MOLECULE>
cr261 (nucleic acid, listed as DNA, chemistry not fully specified) guide: GTTTAAGAGCTAAGCTGGAAACAGCATAGCAAGGTTAAATAAGGCTAGTCCGGTATCAACTTGAAAAAGTGGCACCGAGTCGGTGCT

>  <MEASUREMENT>
0.01441

$$$$
>  <MOLECULE>
cr967 (nucleic acid, listed as DNA, chemistry not fully specified) guide: GTTTAAGAGCTAAGCTGGAAACAGCATAGCAAGTTTAAATAACGCTAGTCGGTTATCAACTTGAAAAAGTGGAACCAAGTTGGTTCT

>  <MEASUREMENT>
0.006446

$$$$

// query Mean relative activity lookup needed for cr993 (nucleic acid, listed as DNA, chemistry not fully specified) guide: GTTTAAGAGCTAAGCTGGAAACAGCATAGCAACTTTAAATAAGGCTAGTCCGTTATCATCTTGAAAAAGAGGCACCGAGTCGGTGCT , thanks.
// result 0.00969

// query Mean relative activity lookup needed for cr157 (nucleic acid, listed as DNA, chemistry not fully specified) guide: GTTTAAGAGCTAAGCTGGAAACAGCATAGCAACTTTAAATAAGGCTAGTCCGTTATCAACTTGAAAAAGTGGCATCGAGTCGATGCT , thanks.
// result 0.01383

// query Mean relative activity lookup needed for cr052 (nucleic acid, listed as DNA, chemistry not fully specified) guide: ATGTAAGAGCTAAGCTGGAAACAGCATAGCAAGTTTAAATAAGGCTAGTCCGTTATCAACTTGAAAAAGTGGCACCGAGTCGGTGCT , thanks.
// result 0.009238

// query Mean relative activity lookup needed for cr339 (nucleic acid, listed as DNA, chemistry not fully specified) guide: GTTTAAGAGCTAAGCTGGAAACAGCATAGCAAGTTTAAATAACCCTAGTGGGTTATCAACTTGAAAAAGTGGCACCGAGTCGGTGCT , thanks.
// result 0.00717

// query Mean relative activity lookup needed for cr860 (nucleic acid, listed as DNA, chemistry not fully specified) guide: GTTTAAGAGCTAAGCTGGAAACAGCATAGCAAGCTTAAATAAAGCTAGTCTGTTATCAACTTGAAAAAGTGGCACCGAGTCGGTGCT , thanks.
// result 0.01022

// query Mean relative activity lookup needed for cr949 (nucleic acid, listed as DNA, chemistry not fully specified) guide: GTTTAAGAGCTAAGCTGGAAACAGCATAGCAAGGTTAAATAAGGCTAGTCCGTTATCAACTTGATAAAGTGGCACCGAGTCGGTGCT , thanks.
// result 0.01022
